B1: Zinc finger MYM-type protein 2, residues 463 to 506; numbered along this chain, Q9UBW7 (parent)
chain: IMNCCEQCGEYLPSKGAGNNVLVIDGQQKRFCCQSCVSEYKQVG

- Variants of: B1
- Test: abundance fitness (aPCA) (normalised: wild type 0, dead -1); higher = more abundant; growth selection in yeast, the domain comes from the species named
- Cond: Homo sapiens
Classify as follows. Reported abundance fitness greater than or equal to -0.1: T. Reported abundance fitness below: F.

* D25M | F
* G16H | F
* M2R | F
* G26A | T
* S35L | F
* F31M | F
* D25P | F
* C33S | T
* V23I | T
* K41Q | T
* G9I | F
* K29Y | T
* K41R | T
* L12P | F
* K15P | T
* R30M | T
* Q34L | F
* N19E | T
* K29F | F
* V23W | T
* L22R | F
